Overview of reported OD450 across a group of binders:
- assayedSystem: Peptide 1: Biotin-…-[Tyr(PC)]-acid
- Sequence (peptide, as listed by the source): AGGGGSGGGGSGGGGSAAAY
- testProtocol: scFv ELISA
Quick note: give the figure in OD450, leave out the unit.

Looking up PcOxP_DB01_F12 (scFv, V domains shown, scFv in periplasmic extract) VH: EVQLLESGGGLVQPGGSLRLSCAASGFTHSDFYMEWVRQAPGKGLEWVAASRNKANGYTTEYADSVKGRFTISRDNSKNTLYLQMNSLRAEDTAVYYCARDYYGSSYWYFDSWGQGTLVTVSS VL: DIVMTQSPDSLAVSLGERATINCTASESLYSSKHKVHYLAWYQQKPGQPPKLLIYGASNRYVGVPDRFSGSGSGTDFTLTISSLQAEDVAVYYCAQFYSYPLTFGGGTKVEIK , I see its OD450 listed as 0.76

New cases:
Looking up PcOxP_DB01_E01 (scFv, V domains shown, scFv in periplasmic extract) VH: EVQLLESGGGLVQPGGSLRLSCAASGFTSSDFYMEWVRQAPGKGLEWVAASRNKANDYTTEYADSVKGRFTISRDNSKNTLYLQMNSLRAEDTAVYYCARDYYGSSYWYFDVWGQGTLVTVSS VL: DIVMTQSPDSLAVSLGERATINCTASESLYSSKHKVHYLAWYQQKPGQPPKLLIYGASNRVIGVPDRFSGSGSGTDFTLTISSLQAEDVAVYYCANFYSYPLTFGGGTKVEIK , I see its OD450 listed as 0.75

The measured values listed here are drawn from patent US20250320312A1.
